Reference source: ChEMBL document CHEMBL1129258

Measured log10 MIC of individual entries
target: DNA gyrase (Staphylococcus aureus) (UniProt P0A0K8+P20831); test: In vitro antibacterial activity against gram-positive organism Staphylococcus aureus 1775; assay type: functional
Sequence (P0A0K8 2-644 limits assumed): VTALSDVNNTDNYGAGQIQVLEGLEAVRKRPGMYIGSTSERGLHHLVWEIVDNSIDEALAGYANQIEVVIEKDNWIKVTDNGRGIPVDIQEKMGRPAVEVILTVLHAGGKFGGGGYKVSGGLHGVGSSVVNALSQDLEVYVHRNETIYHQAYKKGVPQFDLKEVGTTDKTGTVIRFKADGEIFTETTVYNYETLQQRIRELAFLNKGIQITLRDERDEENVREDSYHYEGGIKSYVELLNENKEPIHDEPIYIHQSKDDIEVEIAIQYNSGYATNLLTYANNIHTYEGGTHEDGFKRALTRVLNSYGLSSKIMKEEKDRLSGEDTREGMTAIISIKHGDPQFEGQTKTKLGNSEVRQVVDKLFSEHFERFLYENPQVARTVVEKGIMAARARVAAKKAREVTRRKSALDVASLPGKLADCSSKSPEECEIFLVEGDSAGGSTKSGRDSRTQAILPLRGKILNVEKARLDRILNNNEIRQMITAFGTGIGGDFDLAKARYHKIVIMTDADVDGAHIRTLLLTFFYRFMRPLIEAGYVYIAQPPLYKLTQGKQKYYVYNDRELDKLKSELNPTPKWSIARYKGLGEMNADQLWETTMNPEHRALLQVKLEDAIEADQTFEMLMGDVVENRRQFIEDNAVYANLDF
Sequence (P20831 whole entry partner): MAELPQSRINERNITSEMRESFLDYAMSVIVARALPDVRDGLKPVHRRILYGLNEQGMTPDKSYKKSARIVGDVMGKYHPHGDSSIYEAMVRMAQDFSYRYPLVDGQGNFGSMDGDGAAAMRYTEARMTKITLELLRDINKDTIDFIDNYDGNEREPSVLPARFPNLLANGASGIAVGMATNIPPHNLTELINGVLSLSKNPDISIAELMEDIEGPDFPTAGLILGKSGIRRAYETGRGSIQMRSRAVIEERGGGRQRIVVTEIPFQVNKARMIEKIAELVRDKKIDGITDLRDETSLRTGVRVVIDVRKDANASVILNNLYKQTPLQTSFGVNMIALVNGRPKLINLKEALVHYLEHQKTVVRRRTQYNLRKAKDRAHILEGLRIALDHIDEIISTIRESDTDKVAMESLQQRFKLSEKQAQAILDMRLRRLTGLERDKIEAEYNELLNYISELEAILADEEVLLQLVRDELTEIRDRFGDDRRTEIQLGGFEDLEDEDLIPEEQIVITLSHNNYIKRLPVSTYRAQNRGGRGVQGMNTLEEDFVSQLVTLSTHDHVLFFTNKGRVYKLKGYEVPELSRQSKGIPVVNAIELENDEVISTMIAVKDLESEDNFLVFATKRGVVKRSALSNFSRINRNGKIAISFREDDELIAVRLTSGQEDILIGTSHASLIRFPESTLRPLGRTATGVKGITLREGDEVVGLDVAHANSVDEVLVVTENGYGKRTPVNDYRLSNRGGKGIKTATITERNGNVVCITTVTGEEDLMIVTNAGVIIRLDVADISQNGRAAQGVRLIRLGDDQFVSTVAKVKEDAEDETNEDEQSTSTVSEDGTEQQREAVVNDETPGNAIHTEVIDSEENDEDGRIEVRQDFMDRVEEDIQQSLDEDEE
metric: log10 MIC (log10 of the value in µg/mL)

compound: O=C(O)c1cc(-c2ccc(F)cc2F)c2nc(N3CCC(O)C3)c(F)cn2c1=O (centres undefined)
quantitativeResult: 2.00
//
compound: Cc1c(N2CC[C@H](O)C2)c(F)cn2c(=O)c(C(=O)O)cc(C3CC3)c12
quantitativeResult: -0.41
//
compound: CCc1cc(C(=O)O)c(=O)n2cc(F)c(N3CCC(N)C3)c(C)c12 (centres undefined)
quantitativeResult: 1.10
//
compound: Cc1c(N2C[C@H]3CCC[C@H](N)[C@H]3C2)c(F)cn2c(=O)c(C(=O)O)cc(C3CC3)c12
quantitativeResult: -0.41
//
compound: O=C(O)c1cc(C2CC2)c2nc(N3CCNCC3)c(F)cn2c1=O
quantitativeResult: 1.70
//
compound: Cc1c(N2CCC(c3ccccn3)C2)c(F)cn2c(=O)c(C(=O)O)cc(C3CC3)c12 (centres undefined)
quantitativeResult: -0.70
//
compound: NC1CCN(c2c(F)cn3c(=O)c(C(=O)O)cc(C4CC4)c3c2F)C1 (centres undefined)
quantitativeResult: 0.79
//
compound: Cc1c(N2C[C@H]3CCCN[C@H]3C2)c(F)cn2c(=O)c(C(=O)O)cc(C3CC3)c12 (single isomer, unassigned)
quantitativeResult: -0.11
//
compound: Cc1c(N2C[C@H]3CCN[C@H]3C2)c(F)cn2c(=O)c(C(=O)O)cc(C3CC3)c12 (single isomer, unassigned)
quantitativeResult: 0.79
